OUTCOME MEASURE: melting point (°C)

- COc1cccc(N2CCN(C(=O)C3c4ccccc4Oc4ccccc43)CC2)c1 [Compound 13]: 110
- COc1cccc(N2CCN(C(=O)c3cccc4c3Cc3ccccc3-4)CC2)c1 [Compound 11]: 124
- COc1cc(OC)cc(N2CCN(C(=O)c3cccc4c3Cc3ccccc3-4)CC2)c1 [Compound 9]: 148

---

# System: ovarian adenocarcinoma cell line SKOV-3
# PROTOCOL TEXT: XTT proliferation assay, SKOV-3
# Type: cell-based
# EXPERIMENTAL SETUP: Homo sapiens, SK-OV-3; SKOV-3 cells, 45 h incubation; read-out: XTT proliferation assay, EC50, SKOV3
OUTCOME MEASURE: EC50 (µg/mL)

(I) COc1cccc(N2CCN(C(=O)c3ccnn3-c3ccccc3)CC2)c1
(II) COc1cc(OC)cc(N2CCN(C(=O)c3nccc4ccccc34)CC2)c1
(III) Cc1cccc(N2CCN(C(=O)c3ccnn3-c3ccccc3)CC2)n1
Could you put the items above in increasing order of their EC50? Put the labels in the requested order and write them down. I, III, II
(I: 0.008 µg/mL, III: 0.018 µg/mL, II: 0.287 µg/mL)

Reference for the values: patent US20040097734A1
